study_system: Cytochrome P450 2C9 (Homo sapiens, UniProt P11712)
Sequence (P11712 whole entry): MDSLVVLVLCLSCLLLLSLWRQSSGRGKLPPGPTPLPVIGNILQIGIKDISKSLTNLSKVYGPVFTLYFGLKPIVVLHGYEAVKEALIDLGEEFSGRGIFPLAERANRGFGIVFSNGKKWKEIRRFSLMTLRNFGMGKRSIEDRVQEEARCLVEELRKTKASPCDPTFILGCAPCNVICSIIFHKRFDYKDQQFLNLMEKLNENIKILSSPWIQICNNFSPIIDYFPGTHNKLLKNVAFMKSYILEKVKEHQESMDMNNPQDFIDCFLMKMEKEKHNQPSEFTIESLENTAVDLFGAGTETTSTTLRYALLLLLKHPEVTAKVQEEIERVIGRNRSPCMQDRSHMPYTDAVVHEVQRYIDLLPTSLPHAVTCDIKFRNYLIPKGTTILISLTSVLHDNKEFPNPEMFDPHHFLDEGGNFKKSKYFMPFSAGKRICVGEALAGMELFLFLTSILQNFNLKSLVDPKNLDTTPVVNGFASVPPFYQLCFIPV
assay_explanation: Inhibition of CYP2C9 in human liver microsomes assessed as reduction in formation of tolbutamide to 4-Hydroxytolbutamide at 50 uM preincubated for 30 mins followed by substrate addition measured after 15 mins in presence of NADPH by UPLC-MS analysis
Type: ADME
study_conditions: 0.25 h
measured_parameter: inhibition (INH)

Would you please look over these solved cases?
[
  {
    "molecule": "CC(=O)OC[C@]12[C@H](OC(C)=O)[C@H](OC(C)=O)[C@@H]3[C@@H](OC(C)=O)[C@@]14O[C@@]3(C)COC(=O)c1cccnc1CC[C@@](C)(O)C(=O)O[C@@H]([C@H](OC(=O)c1ccoc1)[C@@H]2OC(C)=O)[C@]4(C)O",
    "inhibition (INH)": "Not Active"
  },
  {
    "molecule": "CC(=O)OC[C@]12[C@H](OC(C)=O)[C@H](OC(C)=O)[C@@H]3[C@@H](OC(C)=O)[C@@]14O[C@@]3(C)COC(=O)c1cccnc1CC[C@@](C)(O)C(=O)O[C@@H]([C@H](OC(=O)c1ccccc1)[C@@H]2OC(C)=O)[C@]4(C)O",
    "inhibition (INH)": "Active"
  },
  {
    "molecule": "CC(=O)OC[C@@]12[C@H](OC(C)=O)[C@H](OC(C)=O)[C@@H]3[C@@H](OC(C)=O)[C@@]14O[C@@]3(C)COC(=O)c1cccnc1[C@@H](C)[C@H](C)C(=O)O[C@@H]([C@H](OC(C)=O)[C@@H]2OC(C)=O)[C@]4(C)O",
    "inhibition (INH)": "Not Active"
  },
  {
    "molecule": "CC(=O)OC[C@]12[C@H](OC(C)=O)[C@H](OC(C)=O)[C@@H]3[C@@H](OC(C)=O)[C@@]14O[C@@]3(C)COC(=O)c1cccnc1CCC(C)C(=O)O[C@@H]([C@H](OC(=O)c1ccoc1)[C@@H]2OC(C)=O)[C@]4(C)O (stereo not given in full)",
    "inhibition (INH)": "Not Active"
  }
]

Moving on to another molecule below.
Which measured inhibition (INH) value corresponds to CC(=O)OC[C@]12[C@H](OC(C)=O)[C@H](OC(C)=O)[C@@H]3[C@@H](OC(C)=O)[C@@]14O[C@@]3(C)COC(=O)c1cccnc1CC[C@H](C)C(=O)O[C@@H]([C@H](OC(=O)c1ccccc1)[C@@H]2OC(C)=O)[C@]4(C)O ?
Active

* * *

study_system: Cytochrome P450 2D6 (Homo sapiens)
Sequence (P10635 whole entry): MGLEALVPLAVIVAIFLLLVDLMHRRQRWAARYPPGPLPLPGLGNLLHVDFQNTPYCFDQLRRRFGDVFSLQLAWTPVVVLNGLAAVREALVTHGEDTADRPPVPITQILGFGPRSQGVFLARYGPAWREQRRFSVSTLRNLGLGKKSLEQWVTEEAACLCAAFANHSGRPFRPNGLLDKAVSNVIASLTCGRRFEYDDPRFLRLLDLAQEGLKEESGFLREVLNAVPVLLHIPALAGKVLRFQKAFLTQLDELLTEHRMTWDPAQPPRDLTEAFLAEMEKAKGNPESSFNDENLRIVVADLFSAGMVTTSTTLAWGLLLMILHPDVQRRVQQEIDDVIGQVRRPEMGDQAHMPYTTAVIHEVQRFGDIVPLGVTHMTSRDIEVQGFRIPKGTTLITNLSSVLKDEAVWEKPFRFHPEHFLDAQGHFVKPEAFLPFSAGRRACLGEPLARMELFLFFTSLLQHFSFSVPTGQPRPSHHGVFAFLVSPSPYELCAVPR
assay_explanation: Inhibition of CYP2D6 in human liver microsomes assessed as reduction in formation of dextromethorphan to dextrorphan at 50 uM preincubated for 30 mins followed by substrate addition measured after 15 mins in presence of NADPH by UPLC-MS analysis
Format: ADME
study_conditions: 0.25 h
measured_parameter: inhibition (INH)

Here is how some compounds turned out for inhibition (INH).
[
  {
    "compound": "CC(=O)OC[C@@]12[C@H](OC(C)=O)[C@H](OC(C)=O)[C@@H]3[C@@H](OC(C)=O)[C@@]14O[C@@]3(C)COC(=O)c1cccnc1[C@@H](C)[C@H](C)C(=O)O[C@@H]([C@H](OC(C)=O)[C@@H]2OC(C)=O)[C@]4(C)O",
    "measured_parameter": "inhibition (INH)",
    "reported_value": "Not Active"
  },
  {
    "compound": "CC(=O)OC[C@]12[C@H](OC(C)=O)[C@H](OC(C)=O)[C@@H]3[C@@H](OC(C)=O)[C@@]14O[C@@]3(C)COC(=O)c1cccnc1CC[C@@](C)(O)C(=O)O[C@@H]([C@H](OC(=O)c1ccccc1)[C@@H]2OC(C)=O)[C@]4(C)O",
    "measured_parameter": "inhibition (INH)",
    "reported_value": "Active"
  },
  {
    "compound": "CC(=O)OC[C@]12[C@H](OC(C)=O)[C@H](OC(C)=O)[C@@H]3[C@@H](OC(C)=O)[C@@]14O[C@@]3(C)COC(=O)c1cccnc1CC[C@@](C)(O)C(=O)O[C@@H]([C@H](OC(=O)c1ccoc1)[C@@H]2OC(C)=O)[C@]4(C)O",
    "measured_parameter": "inhibition (INH)",
    "reported_value": "Not Active"
  },
  {
    "compound": "CC(=O)OC[C@]12[C@H](OC(C)=O)[C@H](OC(C)=O)[C@@H]3[C@@H](OC(C)=O)[C@@]14O[C@@]3(C)COC(=O)c1cccnc1CC[C@H](C)C(=O)O[C@@H]([C@H](OC(=O)c1ccccc1)[C@@H]2OC(C)=O)[C@]4(C)O",
    "measured_parameter": "inhibition (INH)",
    "reported_value": "Active"
  }
]

For the record CC(=O)OC[C@]12[C@H](OC(C)=O)[C@H](OC(C)=O)[C@@H]3[C@@H](OC(C)=O)[C@@]14O[C@@]3(C)COC(=O)c1cccnc1CCC(C)C(=O)O[C@@H]([C@H](OC(=O)c1ccoc1)[C@@H]2OC(C)=O)[C@]4(C)O (stereo not given in full) , what value of inhibition (INH) is listed for Cytochrome P450 2D6 (Homo sapiens)?
Not Active
